- TARGET DESC: recombinant full-length human prolyl endopeptidase (PREP) (Homo sapiens)
- Construct: To recombinant full-length human prolyl endopeptidase (PREP, R&D-Systems, 4308-SE); purchased R&D-Systems 4308-SE
- Sequence (P48147 1-710): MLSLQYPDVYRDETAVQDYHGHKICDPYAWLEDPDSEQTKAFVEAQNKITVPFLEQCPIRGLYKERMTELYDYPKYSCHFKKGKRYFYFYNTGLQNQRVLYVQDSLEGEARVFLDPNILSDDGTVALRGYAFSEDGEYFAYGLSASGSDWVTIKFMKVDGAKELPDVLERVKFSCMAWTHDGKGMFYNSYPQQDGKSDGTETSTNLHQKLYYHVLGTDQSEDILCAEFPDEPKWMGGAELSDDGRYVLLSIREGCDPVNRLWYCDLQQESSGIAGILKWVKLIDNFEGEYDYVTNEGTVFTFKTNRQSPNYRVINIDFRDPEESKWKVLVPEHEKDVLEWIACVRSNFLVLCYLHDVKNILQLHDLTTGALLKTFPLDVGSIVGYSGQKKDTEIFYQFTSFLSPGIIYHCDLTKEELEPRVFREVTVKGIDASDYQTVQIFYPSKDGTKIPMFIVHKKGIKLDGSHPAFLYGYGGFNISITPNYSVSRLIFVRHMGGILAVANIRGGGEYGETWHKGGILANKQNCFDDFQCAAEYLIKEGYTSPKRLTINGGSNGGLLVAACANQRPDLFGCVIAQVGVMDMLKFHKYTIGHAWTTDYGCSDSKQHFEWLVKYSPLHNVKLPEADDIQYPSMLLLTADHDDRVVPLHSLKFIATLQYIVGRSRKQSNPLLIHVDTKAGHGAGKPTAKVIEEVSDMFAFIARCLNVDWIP
- ASSAY METHOD TEXT: Biochemical human prolyl endopeptidase (PREP) assay with fluorescently labelled substrate
- RUN CONDITIONS: substrate Z-Gly-Pro-AMC 50 μM, 32° C., 60 min; some as mean values from multiple independent determinations
PARAMETER MEASURED: IC50
Note to self: number, then unit, no commentary.

Use the examples below as a reference point.
For the compound O=C(C1CCCc2nn(Cc3ccc(Cl)cc3)c(=O)n21)N1CCCC1 (racemic) , report IC50.
1.28 nM

For the compound O=C(C1CC(C(F)(F)F)Cc2nn(Cc3ncc(Cl)cc3F)c(=O)n21)N1CC[C@H](F)C1 (single isomer, unassigned) [Example 265] , report IC50.
1.3 nM

---
For the compound O=C(C1CC(C(F)(F)F)Cc2nn(Cc3ncc(C(F)(F)F)cc3Cl)c(=O)n21)N1CCC(F)(F)C1 (racemic) [Example 564] , report IC50.
4.4 nM

For the compound `COc1ccc(Cn2nc3n(c2=O)[C@H](C(=O)N2C[C@@H](F)[C@@H](F)C2)CCC3)nc1` , report IC50.
2.1 nM

For the compound O=C(C1CC(C(F)(F)F)Cc2nn(Cc3ccc(Cl)nc3)c(=O)n21)N1CC(F)C1 (single isomer, unassigned) [Example 239] , report IC50.
11.2 nM

For the compound `N#C[C@@H]1CCCN1C(=O)[C@@H]1CCCc2nn(Cc3csc(C(F)(F)F)n3)c(=O)n21` , report IC50.
0.425 nM

For the compound O=C(C1CC(C(F)(F)F)Cc2nn(Cc3cncc(Cl)c3)c(=O)n21)N1CC[C@H](F)C1 (mixture of isomers) [Example 316] , report IC50.
2.6 nM

For the compound O=C(C1CCCc2nn(Cc3ccc(F)c(C(F)(F)F)c3)c(=O)n21)N1CC[C@H](O)C1 (mixture of isomers) , report IC50.
3.05 nM

For the compound O=C(C1CCCc2nn(Cc3ccc4c(c3)CCCC4)c(=O)n21)N1CCC(F)(F)C1 (racemic) , report IC50.
1.17 nM

For the compound O=C(C1CC(C(F)(F)F)Cc2nn(Cc3ncc(Cl)cc3F)c(=O)n21)N1C[C@@H](F)[C@@H](F)C1 (single isomer, unassigned) [Example 267] , report IC50.
2.3 nM

For the compound `Cn1nc(Cn2nc3n(c2=O)[C@H](C(=O)N2CC(F)(F)C2)CCC3)c2cccnc21` , report IC50.
5.4 nM

For the compound O=C(C1CC(C(F)(F)F)Cc2nn(Cc3ccc(Cl)nc3)c(=O)n21)N1CCCC1 (single isomer, unassigned) [Example 228] , report IC50.
2.2 nM

For the compound `COc1ccc(Cn2nc3n(c2=O)[C@H](C(=O)N2CC(F)C2)CCC3)nc1` , report IC50.
5.9 nM

For the compound Cc1[nH]cnc1Cn1nc2n(c1=O)C(C(=O)N1CCCC1)CCC2 (racemic) , report IC50.
4.9 nM
